- System: Streptococcus gordonii
- assay: Twenty-four hour optical density growth in BHI
- Type: cell-based
- condition.details: S gordonii; 10 μmol/ml
quantity.kind: extent of growth: maximal OD630 over 24 hr divided by maximal OD of control (control = 1)
Numbers only.

chem.smiles	target.desc	test.result
CC(=O)N[C@H](C=O)[C@@H](O)[C@H](O)[C@H](O)CO	Streptococcus gordonii	1.0254
O[C@H]1[C@H](O)[C@@H](O)[C@H](O)[C@@H](O)[C@H]1O	Streptococcus gordonii	0.9732
OC[C@H]1O[C@@](O)(CO)[C@@H](O[C@H]2O[C@H](CO)[C@@H](O)[C@H](O)[C@H]2O)[C@@H]1O	Streptococcus gordonii	1.0491

[Q] For the compound OC[C@@H](O)[C@@H](O[C@H]1O[C@H](CO)[C@H](O)[C@H](O)[C@H]1O)[C@H](O)[C@@H](O)CO , give its reported extent of growth: maximal OD630 over 24 hr divided by maximal OD of control (control = 1).
[A] 0.9945

###

Field: metabolic activity: OD 492 nm divided by OD of control (control = 1). Provide a value for each of the molecules that follow.
- Tested on: Aggregatibacter actinomycetemcomitans
- assay: Phenotype microarray metabolic activity
- Assay type: cell-based
- condition.details: A actinomycetemcomitans; 48 hrs

Here is how some molecules turned out for metabolic activity: OD 492 nm divided by OD of control (control = 1).
chem.smiles	target.desc	test.result
OC[C@H]1O[C@@](O)(CO)[C@@H](O[C@H]2O[C@H](CO)[C@@H](O)[C@H](O)[C@H]2O)[C@@H]1O	Aggregatibacter actinomycetemcomitans	1.2549
OC[C@H]1O[C@@](CO)(O[C@H]2O[C@H](CO)[C@@H](O)[C@H](O)[C@H]2O)[C@@H](O[C@H]2O[C@H](CO)[C@@H](O)[C@H](O)[C@H]2O)[C@@H]1O	Aggregatibacter actinomycetemcomitans	0.7710
O[C@H]1[C@H](O)[C@@H](O)[C@H](O)[C@@H](O)[C@H]1O	Aggregatibacter actinomycetemcomitans	1.5191

Take each entry in turn and give its metabolic activity: OD 492 nm divided by OD of control (control = 1).
1. CC(=O)N[C@H](C=O)[C@@H](O)[C@H](O)[C@H](O)CO
2. OC[C@@H](O)[C@@H](O[C@H]1O[C@H](CO)[C@H](O)[C@H](O)[C@H]1O)[C@H](O)[C@@H](O)CO

[A]
2.1360
0.8237

###

- System: Streptococcus mitis
- assay: Twenty-four hour optical density growth in BHI
- Assay type: cell-based
- condition.details: S mitis; 20 μmol/ml
quantity.kind: extent of growth: maximal OD630 over 24 hr divided by maximal OD of control (control = 1)
Numbers only.

Worked set:
molecule	test.result
O[C@H]1[C@H](O)[C@@H](O)[C@H](O)[C@@H](O)[C@H]1O [Myo-Inositol]	0.8975
CC(=O)N[C@H](C=O)[C@@H](O)[C@H](O)[C@H](O)CO [N-acetyl-D-mannosamine, 2-acetamido-2-deoxy-D-mannose]	1.7155
OC[C@H]1O[C@@](O)(CO)[C@@H](O[C@H]2O[C@H](CO)[C@@H](O)[C@H](O)[C@H]2O)[C@@H]1O [D-Turanose]	1.3589

// next entry
[Q] Let me know recorded extent of growth: maximal OD630 over 24 hr divided by maximal OD of control (control = 1) for OC[C@@H](O)[C@@H](O[C@H]1O[C@H](CO)[C@H](O)[C@H](O)[C@H]1O)[C@H](O)[C@@H](O)CO [D-Lactitol, 4-O-α-D-galactopyranosyl-D-glucitol] , thanks.
[A] 0.9151

###

- Test system: Porphyromonas gingivalis
- assay: Twenty-four hour optical density growth in BHI
- Format: cell-based
- condition.details: P gingivalis; 20 μmol/ml
- Procedure: The extent of growth of the tested bacteria in response to selected saccharides (myo-inositol, D-lactitol, D-turanose and N-acetyl-D-mannosamine) was investigated by setting up growth curves in a nutritionally rich medium (brain heart infusion broth (BHI), Oxoid), over 24 hours. […]
Please provide measured extent of growth: maximal OD630 over 24 hr divided by maximal OD of control (control = 1) for the entries that follow.
One number for each entry.

Some compounds with known extent of growth: maximal OD630 over 24 hr divided by maximal OD of control (control = 1) results, for comparison:
chem.smiles	target.desc	test.result
OC[C@@H](O)[C@@H](O[C@H]1O[C@H](CO)[C@H](O)[C@H](O)[C@H]1O)[C@H](O)[C@@H](O)CO	Porphyromonas gingivalis	0.9706
CC(=O)N[C@H](C=O)[C@@H](O)[C@H](O)[C@H](O)CO	Porphyromonas gingivalis	0.9137
OC[C@H]1O[C@@](O)(CO)[C@@H](O[C@H]2O[C@H](CO)[C@@H](O)[C@H](O)[C@H]2O)[C@@H]1O	Porphyromonas gingivalis	0.9183

Switching to the query record.
[Q] Let me know recorded extent of growth: maximal OD630 over 24 hr divided by maximal OD of control (control = 1) for O[C@H]1[C@H](O)[C@@H](O)[C@H](O)[C@@H](O)[C@H]1O , thanks.
[A] 0.9758
